Reported relative viability values for the following compounds.
Test system: HOP-62
PROCEDURE_TEXT: relative viability (nuclei count vs DMSO), 5 days (fraction); higher = more cells survive
CONDITION_NOTES: first compound 8 µM

Example cases with answers are listed next.
COMPOUND: C=C1C(=O)O[C@@H](CCCCCCCC)[C@@H]1C(=O)O [C-75] + CC(=O)c1c(C)c2cnc(Nc3ccc(N4CCNCC4)cn3)nc2n(C2CCCC2)c1=O [Palbociclib] (partner 0.5 µM)
relative viability: 0.413
//
COMPOUND: C=C1C(=O)O[C@@H](CCCCCCCC)[C@@H]1C(=O)O [C-75] + Cc1cc(Nc2cc(N3CCN(C)CC3)nc(Sc3ccc(NC(=O)C4CC4)cc3)n2)n[nH]1 [Tozasertib] (partner 0.1 µM)
relative viability: 0.335
//
COMPOUND: C=C1C(=O)O[C@@H](CCCCCCCC)[C@@H]1C(=O)O [C-75] + CC1(C)CCC(c2ccc(Cl)cc2)=C(CN2CCN(c3ccc(C(=O)NS(=O)(=O)c4ccc(N[C@H](CCN5CCOCC5)CSc5ccccc5)c(S(=O)(=O)C(F)(F)F)c4)cc3)CC2)C1 [Navitoclax] (partner 0.5 µM)
relative viability: 0.857

Any idea what its relative viability is? The compound is C=C1C(=O)O[C@@H](CCCCCCCC)[C@@H]1C(=O)O [C-75] + Cc1nc(NC(=O)N2CCC[C@H]2C(N)=O)sc1-c1ccnc(C(C)(C)C(F)(F)F)c1 [Alpelisib] (partner 2 µM)
0.765

* * *

Test system: CAL-12T
PROCEDURE_TEXT: relative viability (nuclei count vs DMSO), 5 days (fraction); higher = more cells survive
CONDITION_NOTES: first compound 0.03162 µM
Label key: true (1) means relative viability under 0.5; false (0) means relative viability of 0.5 or more.

Consider the molecule NC(=O)Nc1cc(-c2cccc(F)c2)sc1C(=O)N[C@H]1CCCNC1 [AZD7762] + Cc1nc(Nc2ncc(C(=O)Nc3c(C)cccc3Cl)s2)cc(N2CCN(CCO)CC2)n1 [Dasatinib] (partner 0.075 µM) . Is its relative viability strictly less than 0.5?
true (1)

* * *

System: NCI-H2087
PROCEDURE_TEXT: relative viability (nuclei count vs DMSO), 5 days (fraction); higher = more cells survive
CONDITION_NOTES: first compound 0.1581 µM
MEASUREMENT_NAME: relative viability
Number only, please.

Example cases with answers are listed next.
MOLECULE: CC1(C)CCC(c2ccc(Cl)cc2)=C(CN2CCN(c3ccc(C(=O)NS(=O)(=O)c4ccc(N[C@H](CCN5CCOCC5)CSc5ccccc5)c(S(=O)(=O)C(F)(F)F)c4)cc3)CC2)C1 [Navitoclax] + CC(=O)Nc1cccc(-n2c(=O)n(C3CC3)c(=O)c3c(Nc4ccc(I)cc4F)n(C)c(=O)c(C)c32)c1 [Trametinib] (partner 0.02 µM)
STUDY_TARGET: NCI-H2087
TEST_RESULT: 0.145
//
MOLECULE: CC1(C)CCC(c2ccc(Cl)cc2)=C(CN2CCN(c3ccc(C(=O)NS(=O)(=O)c4ccc(N[C@H](CCN5CCOCC5)CSc5ccccc5)c(S(=O)(=O)C(F)(F)F)c4)cc3)CC2)C1 [Navitoclax] + COc1cccc2cc(-c3nc([C@H]4CC[C@H](C(=O)O)CC4)n4ncnc(N)c34)[nH]c12 [OSI-027] (partner 0.5 µM)
STUDY_TARGET: NCI-H2087
TEST_RESULT: 0.537
//
MOLECULE: CC1(C)CCC(c2ccc(Cl)cc2)=C(CN2CCN(c3ccc(C(=O)NS(=O)(=O)c4ccc(N[C@H](CCN5CCOCC5)CSc5ccccc5)c(S(=O)(=O)C(F)(F)F)c4)cc3)CC2)C1 [Navitoclax] + Nc1ncn([C@H]2C[C@H](O)[C@@H](CO)O2)c(=O)n1 [Decitabine] (partner 2 µM)
STUDY_TARGET: NCI-H2087
TEST_RESULT: 0.231

Turning now to a further record.
Any idea what its relative viability is? The molecule is CC1(C)CCC(c2ccc(Cl)cc2)=C(CN2CCN(c3ccc(C(=O)NS(=O)(=O)c4ccc(N[C@H](CCN5CCOCC5)CSc5ccccc5)c(S(=O)(=O)C(F)(F)F)c4)cc3)CC2)C1 [Navitoclax] + CC(=O)c1c(C)c2cnc(Nc3ccc(N4CCNCC4)cn3)nc2n(C2CCCC2)c1=O [Palbociclib] (partner 0.5 µM)
0.255

Ref: the supplement of paper PMC10307832
